assayed_target: T1, human ROR1 extracellular domain-Fc fusion (human, UniProt Q01973 30-406)
T1 construct: extracellular domain; also called hROR1; ROR1-hFc
experiment_summary: SPR
measure_name: kon (M⁻¹ s⁻¹)
Answers are plain numbers, in M⁻¹ s⁻¹.

query: kon for P3A1-P3A1-Ox-MMAE (VNAR, chain 1 pos 265 (C-terminal Gly, written G): carboxyl derivatised with O,O'-1,3-propanediylbishydroxylamine (C-terminal aminoxy), joined by oxime to benzaldehyde PEG4 MMAE (non-cleavable), linker as for m77) TRVDQTPRTATKETGESLTINCVLTDTSYGLYSTSWFRKNPGTTDWERMSIGGRYVESVNKGAKSFSLRIKDLTVADSATYYCKAREARHPWLRQWYDGAGTVLTVNGGGGSGGGGSGGGGSGGGGSGGGGSTRVDQTPRTATKETGESLTINCVLTDTSYGLYSTSWFRKNPGTTDWERMSIGGRYVESVNKGAKSFSLRIKDLTVADSATYYCKAREARHPWLRQWYDGAGTVLTVNQASGAHHHHHHGAEFEQKLISEEDLG ?
result: 4.2e+06
